System: Meyerozyma guilliermondii
Assay: Antifungal activity against Candida guilliermondii ATCC 6260 assessed as growth inhibition after 48 hrs by broth microdilution method
Assay type: functional
Conditions: ATCC 6260, 48 h
value type: MIC95
Give the value; after it, write the unit.

molecule: COc1cc(O)cc(/C=C/c2ccc(O)cc2)c1
MIC95: 150 µg/mL
//
molecule: Oc1ccc([C@H]2Oc3ccc(/C=C/c4cc(O)cc5c4[C@@H](c4cc(O)cc(O)c4)[C@H](c4ccc(O)cc4)O5)cc3[C@@H]2c2cc(O)cc3c2[C@H](c2cc(O)cc(O)c2)[C@@H](c2ccc(O)cc2)O3)cc1 (mixture of isomers)
MIC95: 150 µg/mL

Here's the next entry for you.
Data point: COc1ccc(/C=C/c2cc(O)cc(O)c2)cc1 ; MIC95 = 150 µg/mL
